assay name: Quantitative High-Throughput drug screen in 47 multiple myeloma cell lines against the NCATS MIPE library collection: KMS27_JCRB cell viability assay (AID 1918970); further: nearly all actives have a fitted effect of over 30% in size
experimental setup: KMS27 myeloma cells, CellTiter-Glo ATP viability, 48 h; series mostly up to 45.8 µM
Records with an inconclusive call do not appear. The source made the active and inactive calls. The call rests on the fitted dose curve; in most records, active means well fitted cell-killing curve with a large enough effect; inconclusive means small, poorly fitted or top-dose-only effect, or effect the other way; inactive means no such curve, though single readings can be large or run the other way.
# valid calls are t (active), f (inactive); nothing else

Q: Could you check what this test reported for OC(CCN1CCCCC1)(c1ccccc1)C1CC2C=CC1C2 (stereo not given) ?
Result: f

Q: Could you check what this test reported for Cc1[nH]c(=O)c(C#N)cc1-c1ccncc1 ?
Result: t

Q: Could you check what this test reported for COc1c(Cl)cc2c([nH]c3cnccc32)c1NC(=O)c1cccnc1C ?
Result: t

Q: Could you check what this test reported for COc1ccc(CC2=NN3C([C@@H](CCc4ccccc4)[C@@H](C)O)=NC(C)C3C(=O)N2)cc1OC (stereo not given in full) ?
Result: f

Q: Could you check what this test reported for O=c1ncn2nc(Sc3ccc(F)cc3F)ccc2c1-c1c(Cl)cccc1Cl ?
Result: t

Q: Could you check what this test reported for C[C@]12CC[C@H](O)CC1=CC[C@@H]1[C@H]2CC[C@]2(C)C(c3cccnc3)=CC[C@H]12 ?
Result: f

Q: Could you check what this test reported for Nc1nccc(-c2ccc3noc(-c4ccc(Cl)cc4)c3c2)n1 ?
Result: f

Q: Could you check what this test reported for Cc1ccnc(NS(=O)(=O)c2ccc(NC(=O)Nc3ccc(S(=O)(=O)Nc4nccc(C)n4)cc3)cc2)n1 ?
Result: t

Q: Could you check what this test reported for O=C(C=Cc1ccc(/C=C/C(=O)Nc2ccc(C3=NCCN3)cc2)cc1)Nc1ccc(C2=NCCN2)cc1 ?
Result: f

Q: Could you check what this test reported for COc1ccc(-c2ccc3c(N4CCOCC4)nc(N4C[C@@H](C)O[C@@H](C)C4)nc3n2)cc1CO ?
Result: t

Q: Could you check what this test reported for Nc1ncnc2nc(-c3ccc(N4CCOCC4)nc3)cc(-c3cccc(Br)c3)c12 ?
Result: f

Q: Could you check what this test reported for CC(C)(N)C(=O)N[C@H](COCc1ccccc1)C(=O)N1CCC2(CC1)CN(S(C)(=O)=O)c1ccccc12 ?
Result: t

Q: Could you check what this test reported for Cc1ccc(N(CC2=NCCN2)c2cccc(O)c2)cc1 ?
Result: t

Q: Could you check what this test reported for NC(N)=NC(=O)c1nc(Cl)c(N)nc1N ?
Result: t

Q: Could you check what this test reported for CC(C)OC(=O)C1=CN(C(=O)c2ccc(F)c(F)c2)CC(C)(C)c2c1[nH]c1ccccc21 ?
Result: f

Q: Could you check what this test reported for CCn1cc(C(=O)O)c(=O)c2cc(F)c(N3CCNC(C)C3)c(F)c21 (stereo not given) ?
Result: f

Q: Could you check what this test reported for NCCc1ccc(O)c(O)c1 ?
Result: t

Q: Could you check what this test reported for O=C(O)[C@@H](c1ccc(OCc2ccc3ccccc3n2)cc1)C1CCCC1 ?
Result: f

Q: Could you check what this test reported for O=C(NOC[C@H](O)CO)c1ccc(F)c(F)c1Nc1ccc(I)cc1F ?
Result: t

Q: Could you check what this test reported for CCOC(=O)N[C@@H]1CC[C@@H]2[C@@H](C1)C[C@H]1C(=O)O[C@H](C)[C@H]1[C@@H]2C=Cc1ccc(-c2cccc(F)c2)cn1 ?
Result: t

Q: Could you check what this test reported for O=C(Nc1cccnc1)N1CCC(Cc2cccc(Oc3ccc(C(F)(F)F)cn3)c2)CC1 ?
Result: t

Q: Could you check what this test reported for CC(=O)Oc1ccccc1C(=O)O ?
Result: f

Q: Could you check what this test reported for Cc1cn[nH]c1 ?
Result: t

Q: Could you check what this test reported for O=C1CCc2cc(OCCCCc3nnnn3C3CCCCC3)ccc2N1 ?
Result: f

Q: Could you check what this test reported for O=C1CCC(N2C(=O)c3ccccc3C2=O)C(=O)N1 (stereo not given) ?
Result: f

Q: Could you check what this test reported for OCCC#Cc1nc(-c2ccc(F)cc2)c(-c2ccncc2)n1CCCc1ccccc1 ?
Result: t

Q: Could you check what this test reported for Cc1cnc(NC(=O)C2=C(O)c3ccccc3S(=O)(=O)N2C)s1 ?
Result: f

Q: Could you check what this test reported for c1ccc([C@H]2CN3CCSC3=N2)cc1 ?
Result: f

Q: Could you check what this test reported for CC(C)C[C@H](NC(=O)[C@@H](O)[C@H](N)Cc1ccccc1)C(=O)O ?
Result: f

Q: Could you check what this test reported for Cc1csc(NC(=O)c2sc3nc4c(c(C(F)(F)F)c3c2N)CCC4)n1 ?
Result: f

Q: Could you check what this test reported for COc1ccccc1-c1cccc(-c2c(O)c3cc(C#N)c(Cl)cc3[nH]c2=O)c1 ?
Result: t

Q: Could you check what this test reported for NC[C@H](O)c1ccc(O)c(O)c1 ?
Result: f

Q: Could you check what this test reported for CCC(C)N(C)C(=O)c1cc2ccccc2c(-c2ccccc2Cl)n1 (stereo not given) ?
Result: t

Q: Could you check what this test reported for CCN(CC)CCCC(C)Nc1nc(C)cc(Nc2ccc3nc(C)cc(N)c3c2)n1 (stereo not given) ?
Result: t

Q: Could you check what this test reported for CCC(=O)N[C@H]1CC[C@H](C(=O)N(C)c2ccc(-c3nc4ccccc4o3)cc2)C1 ?
Result: t

Q: Could you check what this test reported for COc1nc(-c2ccc3c(c2)OCO3)n(-c2ccc(NC(=O)CSc3ccccc3)cc2)n1 ?
Result: f

Q: Could you check what this test reported for CCOc1cc(N2CCC(O)CC2)ccc1Nc1ncc2c(n1)N(C)c1ccccc1C(=O)N2C ?
Result: t

Q: Could you check what this test reported for O=c1n(CCCN2CCN(c3cccc(Cl)c3)CC2)nc2ccccn12 ?
Result: f

Q: Could you check what this test reported for CC1(C)SCCN(S(=O)(=O)c2ccc(OCC#CCO)cc2)[C@@H]1C(=O)NO ?
Result: f

Q: Could you check what this test reported for O=C(O)CCc1ccc(NCc2cccc(Oc3ccccc3)c2)cc1 ?
Result: f
